Measured target: T1, EsCas13d, nuclease-dead (Eubacterium siraeum, UniProt B0MS50, R295A;H300A;R849A;H854A)
T1 sequence: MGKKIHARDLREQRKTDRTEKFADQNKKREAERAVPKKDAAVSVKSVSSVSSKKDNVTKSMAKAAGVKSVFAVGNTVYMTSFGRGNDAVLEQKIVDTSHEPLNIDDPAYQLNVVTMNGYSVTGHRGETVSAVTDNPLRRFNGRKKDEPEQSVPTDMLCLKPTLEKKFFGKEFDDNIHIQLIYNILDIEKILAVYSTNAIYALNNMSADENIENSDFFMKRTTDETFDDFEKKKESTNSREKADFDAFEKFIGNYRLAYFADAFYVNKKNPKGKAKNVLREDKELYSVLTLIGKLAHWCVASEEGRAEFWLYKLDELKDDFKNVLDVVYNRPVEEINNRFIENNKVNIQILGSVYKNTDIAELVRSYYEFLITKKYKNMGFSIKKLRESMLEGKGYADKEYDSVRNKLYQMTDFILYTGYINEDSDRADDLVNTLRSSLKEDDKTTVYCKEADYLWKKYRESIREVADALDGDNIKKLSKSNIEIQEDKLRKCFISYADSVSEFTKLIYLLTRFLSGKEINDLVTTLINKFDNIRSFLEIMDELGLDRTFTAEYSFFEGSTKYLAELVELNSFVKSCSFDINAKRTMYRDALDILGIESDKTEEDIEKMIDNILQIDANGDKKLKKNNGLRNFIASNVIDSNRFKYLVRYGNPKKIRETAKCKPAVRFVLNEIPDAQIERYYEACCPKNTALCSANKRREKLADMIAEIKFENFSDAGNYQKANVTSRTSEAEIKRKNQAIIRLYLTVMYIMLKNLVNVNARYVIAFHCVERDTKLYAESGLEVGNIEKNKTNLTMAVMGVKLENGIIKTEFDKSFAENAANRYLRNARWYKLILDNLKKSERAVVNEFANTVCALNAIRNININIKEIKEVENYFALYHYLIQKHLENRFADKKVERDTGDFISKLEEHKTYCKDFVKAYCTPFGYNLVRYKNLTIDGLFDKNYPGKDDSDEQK
Test: crRNA (strand 1, pre-loaded); Mg2+; 40 mM Tris-HCl pH 7.5, 150 mM NaCl, 6 mM MgCl2, 1 mM DTT, 0.1% Tween-20, 0.2 mg/ml BSA; 25 C; 10 min per concentration, then washed
Condition summary: tags: His6-TwinStrep-SUMO cleaved; N-terminal SNAP kept (SNAP-Surface 488); label: 3' end held by stalled T7 RNA polymerase
pKd: −log10 of the molar value.
Overview of reported pKd across a group of binders:

| Binder | pKd |
| --- | --- |
| target 1 insC 3' of 14,insC 3' of 5 (mixed) RNA 1: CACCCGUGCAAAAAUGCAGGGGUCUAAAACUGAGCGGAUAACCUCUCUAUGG RNA 2: GGGAAUGGAUCCACAUCUACGAAUUCGUACCAUAGAGACGGUUAUCCGCCUCACCGAGAUCGGAAGAGCACACGU | 7.12 |
| target 3 U8C,A18G (mixed) RNA 1: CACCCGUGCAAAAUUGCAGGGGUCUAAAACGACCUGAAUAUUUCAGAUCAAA RNA 2: GGGAAUGGAUCCACAUCUACGAAUUCGUUUUUGGUCUGAAAUACUCAGGUCUGCAGAUCGGAAGAGCACACGU | 7.26 |
| target 1 insC 3' of 14,insA 3' of 7 (mixed) RNA 1: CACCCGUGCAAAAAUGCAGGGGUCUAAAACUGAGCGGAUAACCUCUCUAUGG RNA 2: GGGAAUGGAUCCACAUCUACGAAUUCGUACCAUAGAGACGGUUAUCACGCUCACCGAGAUCGGAAGAGCACACGU | 7.33 |
| target 1 MT 5'PFS UAG 3'PFS UGA (mixed) RNA 1: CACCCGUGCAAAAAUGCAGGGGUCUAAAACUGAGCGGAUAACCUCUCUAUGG RNA 2: GGGAAUGGAUCCACAUCUACGAAUUCUAGCCAUAGAGAGGUUAUCCGCUCAUGAAGAUCGGAAGAGCACACGU | 7.46 |
